# target-or-test-system: Bacteriorhodopsin digested with chymotrypsin (Halobacterium salinarum, UniProt P02945)
# Sequence (P02945 14-261 limits assumed): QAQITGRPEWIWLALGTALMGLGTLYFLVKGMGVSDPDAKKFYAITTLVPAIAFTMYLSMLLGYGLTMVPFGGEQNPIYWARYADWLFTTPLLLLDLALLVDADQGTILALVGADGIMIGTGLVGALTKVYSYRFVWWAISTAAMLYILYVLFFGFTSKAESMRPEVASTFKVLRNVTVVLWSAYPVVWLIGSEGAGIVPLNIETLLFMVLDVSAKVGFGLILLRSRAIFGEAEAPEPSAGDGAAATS
# assay-procedure: Bacteriorhodopsin/Chymotrypsin digest, HPLC peak area versus RapiGest control
# Type: biochemical
# run-conditions: 0.025% surfactant, BR heated (boiled) with surfactant 5 minutes at 95° C., chymotrypsin 10:1, 1 hour at 37° C.; ratio to RapiGest control
measured-endpoint: surfactant Pk area/RG Pk area, Bacteriorhodopsin/Chymotrypsin digest
Lab note: record the figure alone, no unit after it.

CCCCCCCC(C)(C)OC(=O)NCC(O)CS(=O)(=O)O (stereo not shown)	0.55
CCCCCCCCCCCCOc1ccc(/C=N/CCCS(=O)(=O)O)cc1	0.5
CCCCCCCCCOCC(C)(C)OC(=O)NCCCS(=O)(=O)O	0.45
CCCCCCCCCCCC(C)(C)OC(=O)SCCS(=O)(=O)O	0.6
CCCCCCCCCCOc1ccc(C(OCCN(CCCCS(=O)(=O)[O-])CCCCS(=O)(=O)[O-])(c2ccccc2)c2ccc(OCCCCCCCCCC)cc2)cc1.[Na+].[Na+]	0.65

The molecule listed as CCCCCCCCCCOc1ccc(C(OCCN(CCCCS(=O)(=O)[O-])CCCCS(=O)(=O)[O-])(c2ccccc2)c2ccc(OC)cc2)cc1.[Na+].[Na+] (stereo not shown) shows surfactant Pk area/RG Pk area, Bacteriorhodopsin/Chymotrypsin digest equal to 0.8

The molecule listed as CCCCCCCCCCC1COC(c2cccc(OCCCS(=O)(=O)[O-])c2)O1.[Na+] (stereo not shown) shows surfactant Pk area/RG Pk area, Bacteriorhodopsin/Chymotrypsin digest equal to 1.2

----------
# assay-procedure: Acid and thermal degradation of the surfactant
# run-conditions: 0.01% solution; 37° C. where stated
# time to degradation of 0.01% solution per record follows

Worked cases, answers included:
CCCCCCCCCCCC(C)(C)OC(=O)NCCCS(=O)(=O)O [Compound 3116]	≤ 120 min
CCCCCCOc1ccc(COC(=O)NCCCS(=O)(=O)O)cc1 [Compound 3186]	≤ 30 min

The compound listed as CCCCCC(OC(=O)NCCCS(=O)(=O)O)c1ccccc1 (stereo not drawn) [Compound 3190] shows time to degradation of 0.01% solution equal to 30 min

The compound listed as CCCCCCCCCCCC(C)(C)OC(=O)Oc1ccc(N(CCCCS(=O)(=O)[O-])CCCCS(=O)(=O)O)cc1.[Na+] [Compound 3196] shows time to degradation of 0.01% solution equal to 30 min

The compound listed as CCCCCC(OC(=O)SCCS(=O)(=O)O)c1ccccc1 (stereo not drawn) [Compound 3207] shows time to degradation of 0.01% solution equal to ≤ 60 min

The compound listed as CCCCCCOc1ccc(C(OCCCS(=O)(=O)[O-])(c2ccccc2)c2ccccc2)cc1.[Na+] [Compound 3202] shows time to degradation of 0.01% solution equal to ≤ 30 min

----------
# assay-procedure: Hydrolytic stability in 50 mM ammonium bicarbonate (reverse-phase HPLC)
# Assay type: physicochemical
# Design: key: >>: compound 100% stable over course of experiment
# run-conditions: surfactant conc. 1% in 50 mM ammonium bicarbonate
measured-endpoint: ½-life

CCCCCCCCCCCCC(OC(=O)NCCCS(=O)(=O)O)c1ccc(OC)c(OC)c1 (stereo not shown) [Compound 3266]	>>
CCCCCCCCCCC(OC(=O)NCCCS(=O)(=O)O)c1ccoc1 (stereo not shown) [Compound 3271]	>>
CCCCCCCCCCC(OC(=O)NCCCS(=O)(=O)[O-])c1ccc(OC)cc1.[Na+] (stereo not shown) [Compound 3212]	>>
CCCCCCCCCCC(OC(=O)NCCCS(=O)(=O)O)c1ccc(C(F)(F)F)o1 (stereo not shown) [Compound 3275]	>>

----------
# solubility in aqueous solutions (concentration dissolved to) per record follows
# assay-procedure: Solubility of the surfactant
# run-conditions: aqueous solution

Worked cases, answers included:
CCCCCCCCCCCC(C)(C)OC(=O)NCCCS(=O)(=O)O	≥ 0.5%
CCCCCCCCCCC(OC(=O)NCCCS(=O)(=O)O)c1ccc(C(F)(F)F)cc1 (stereo not shown)	~0.01%

The molecule listed as CCCCCCOc1ccc(C(OCCCS(=O)(=O)[O-])(c2ccccc2)c2ccccc2)cc1.[Na+] shows solubility in aqueous solutions (concentration dissolved to) equal to ~0.01%
